- assay_target: T1, EsCas13d, nuclease-dead (Eubacterium siraeum, UniProt B0MS50, R295A;H300A;R849A;H854A)
- T1 sequence: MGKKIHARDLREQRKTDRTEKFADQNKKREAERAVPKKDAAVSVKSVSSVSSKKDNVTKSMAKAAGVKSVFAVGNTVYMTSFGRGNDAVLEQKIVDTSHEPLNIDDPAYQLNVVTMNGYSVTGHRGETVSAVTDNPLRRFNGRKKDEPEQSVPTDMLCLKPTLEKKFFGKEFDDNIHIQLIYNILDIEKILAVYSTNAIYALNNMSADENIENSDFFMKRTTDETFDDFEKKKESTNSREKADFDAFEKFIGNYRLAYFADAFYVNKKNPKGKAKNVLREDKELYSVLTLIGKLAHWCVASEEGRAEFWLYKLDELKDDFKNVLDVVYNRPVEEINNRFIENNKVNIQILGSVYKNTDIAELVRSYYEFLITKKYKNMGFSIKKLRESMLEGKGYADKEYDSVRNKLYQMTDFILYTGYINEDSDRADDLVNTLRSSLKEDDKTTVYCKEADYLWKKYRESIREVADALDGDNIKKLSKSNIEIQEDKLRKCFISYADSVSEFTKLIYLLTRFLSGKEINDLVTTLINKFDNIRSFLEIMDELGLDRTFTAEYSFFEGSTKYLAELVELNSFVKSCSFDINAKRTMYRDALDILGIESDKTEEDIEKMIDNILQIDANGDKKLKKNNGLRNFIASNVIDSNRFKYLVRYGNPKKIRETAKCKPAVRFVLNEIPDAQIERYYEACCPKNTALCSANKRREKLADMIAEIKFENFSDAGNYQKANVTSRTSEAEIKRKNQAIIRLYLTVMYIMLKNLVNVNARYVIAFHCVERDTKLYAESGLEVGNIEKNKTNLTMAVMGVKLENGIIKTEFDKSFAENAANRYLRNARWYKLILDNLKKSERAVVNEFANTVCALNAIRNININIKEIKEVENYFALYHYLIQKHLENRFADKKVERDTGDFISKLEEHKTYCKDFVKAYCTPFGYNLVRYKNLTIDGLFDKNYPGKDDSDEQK
- assay_notes: crRNA (strand 1, pre-loaded); Mg2+; 40 mM Tris-HCl pH 7.5, 150 mM NaCl, 6 mM MgCl2, 1 mM DTT, 0.1% Tween-20, 0.2 mg/ml BSA; 25 C; 10 min per concentration, then washed
- condition_label: tags: His6-TwinStrep-SUMO cleaved; N-terminal SNAP kept (SNAP-Surface 488); label: 3' end held by stalled T7 RNA polymerase
The entries below are paired with their reported Kd.
Provide only the numeric value, understood in nM.

A selection of reference data follows.
binder="target 2 MT 5'PFS AAA 3'PFS UCC (mixed) RNA 1: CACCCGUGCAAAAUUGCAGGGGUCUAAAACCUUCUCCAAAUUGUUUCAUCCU RNA 2: GGGAAUGGAUCCACAUCUACGAAUUCAAAAGGAUGAAACAAUUUGGAGAAGUCCAGAUCGGAAGAGCACACGU" measurement_unit=nM numeric_value=7.3
binder="target 1 MT 5'PFS UAC 3'PFS UCG (mixed) RNA 1: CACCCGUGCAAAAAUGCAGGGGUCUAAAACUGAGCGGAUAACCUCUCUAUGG RNA 2: GGGAAUGGAUCCACAUCUACGAAUUCUACCCAUAGAGAGGUUAUCCGCUCAUCGAGAUCGGAAGAGCACACGU" measurement_unit=nM numeric_value=21.3
binder="target 1 C7G,A16C (mixed) RNA 1: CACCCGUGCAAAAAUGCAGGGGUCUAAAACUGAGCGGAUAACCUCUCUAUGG RNA 2: GGGAAUGGAUCCACAUCUACGAAUUCGUACCAUAGCGAGGUUAUGCGCUCACCGAGAUCGGAAGAGCACACGU" measurement_unit=nM numeric_value=63
binder="target 3 G4A,A12U (mixed) RNA 1: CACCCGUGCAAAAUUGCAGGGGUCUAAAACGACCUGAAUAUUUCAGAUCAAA RNA 2: GGGAAUGGAUCCACAUCUACGAAUUCGUUUUUGAUCUGAUAUAUUCAAGUCUGCAGAUCGGAAGAGCACACGU" measurement_unit=nM numeric_value=72.5
binder="target 1 MT 5'PFS UAG 3'PFS AGU (mixed) RNA 1: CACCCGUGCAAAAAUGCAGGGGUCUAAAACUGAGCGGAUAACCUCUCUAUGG RNA 2: GGGAAUGGAUCCACAUCUACGAAUUCUAGCCAUAGAGAGGUUAUCCGCUCAAGUAGAUCGGAAGAGCACACGU" measurement_unit=nM numeric_value=56.5

Prompt: // returns reported Kd for input target 1 insU 3' of 14,insU 3' of 4 (mixed) RNA 1: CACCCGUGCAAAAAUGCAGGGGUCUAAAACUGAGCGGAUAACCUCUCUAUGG RNA 2: GGGAAUGGAUCCACAUCUACGAAUUCGUACCAUAGAGAUGGUUAUCCGCUUCACCGAGAUCGGAAGAGCACACGU
Response: 63

Prompt: Param item = target 1 MT 5'PFS AAU 3'PFS UGA (mixed) RNA 1: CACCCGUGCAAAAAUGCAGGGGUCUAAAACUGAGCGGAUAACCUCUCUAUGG RNA 2: GGGAAUGGAUCCACAUCUACGAAUUCAAUCCAUAGAGAGGUUAUCCGCUCAUGAAGAUCGGAAGAGCACACGU ; retrieve measured Kd.
Response: 61
